# remaining [B] per record follows
test: Colorimetric alkylation rate constant assay with TNB^2− as non-specific thiol; format: physicochemical; conditions: Replicate 2, 542 sec, [B]0=250; in µM

Compound	remaining [B]
O=C(CCl)Nc1ccc(F)cc1	244.808
O=C(CCl)Nc1ccccc1C(=O)O	245.747
C=CS(=O)(=O)Nc1cc2cc(C(=O)CCC(=O)O)sc2cc1OC [Compound E1]	248.022
COc1cc2sc(C(=O)CCC(=O)O)cc2cc1NC(=O)CCl [Compound E2]	243.63
O=C(CCl)Nc1ccccc1	245.363
O=C(CCl)N1CCOCC1	242.118

* * *

# remaining [B] per record follows
assay: Colorimetric alkylation rate constant assay with TNB^2− as non-specific thiol; format: physicochemical; settings: Replicate 2, 1084 sec, [B]0=250; in µM
Measurement kind: remaining [B]

Molecule	Quantitative result
O=C(CCl)N1CCOCC1	240.077
O=C(CCl)Nc1ccccc1C(=O)O	245.382
O=C(CCl)Nc1ccc(F)cc1	243.889
O=C(CCl)Nc1ccccc1	244.393
COc1cc2sc(C(=O)CCC(=O)O)cc2cc1NC(=O)CCl [Compound E2]	242.698
C=CS(=O)(=O)Nc1cc2cc(C(=O)CCC(=O)O)sc2cc1OC [Compound E1]	246.522
